Protocol text: Cmax in Hanover Wistar rat at 50 mg/kg, po
Type: ADME, organism-based
Set-up: dose 50 mg/kg, route oral
Test conditions: in vivo

Molecular string	Cmax / nM
Cc1cc(Cc2ccc(Cl)c(Oc3cc(C#N)cc(C#N)c3)c2F)n[nH]c1=O	1500

---

Protocol text: Aqueous stability assessed as half life at pH 6.5
Assay type: physicochemical

Molecular string	half-life
Cc1cc(Cc2ccc(Cl)c(Oc3cc(C#N)cc(C#N)c3)c2F)nn(COC(=O)OCCN(C)C)c1=O.Cl	54 min
Cc1cc(Cc2ccc(Cl)c(Oc3cc(C#N)cc(C#N)c3)c2F)nn(COC(=O)OCCN2CCOCC2)c1=O.Cl	210 min
Cc1cc(Cc2ccc(Cl)c(Oc3cc(C#N)cc(C#N)c3)c2F)nn(COC(=O)CCC(=O)O)c1=O	2400 min
Cc1cc(Cc2ccc(Cl)c(Oc3cc(C#N)cc(C#N)c3)c2F)nn(COC(=O)[C@@H](N)C(C)C)c1=O.Cl	192 min
Cc1cc(Cc2ccc(Cl)c(Oc3cc(C#N)cc(C#N)c3)c2F)nn(COP(=O)([O-])[O-])c1=O.[Na+].[Na+]	> 1440 min
Cc1cc(Cc2ccc(Cl)c(Oc3cc(C#N)cc(C#N)c3)c2F)nn(COC(=O)c2cccnc2)c1=O.Cl	282 min
Cc1cc(Cc2ccc(Cl)c(Oc3cc(C#N)cc(C#N)c3)c2F)nn(COC(=O)[C@@H]2CCCN2)c1=O.Cl	< 18 min
Cc1cc(Cc2ccc(Cl)c(Oc3cc(C#N)cc(C#N)c3)c2F)nn(COC(=O)CN)c1=O.Cl	60 min

---

Protocol text: Permeability across human Caco-2 cells
Assay type: ADME, cell-based
Test conditions: read-out: permeability

Molecular string	Papp [×10⁻⁶ cm/s]
Cc1cc(Cc2ccc(Cl)c(Oc3cc(C#N)cc(C#N)c3)c2F)n[nH]c1=O	19

---

System: Rattus norvegicus
Protocol text: AUC (0 to 24 hrs) in Hanover Wistar rat assessed as 5-(6-chloro-2-fluoro-3-((5-methyl-6-oxo-1,6-dihydropyridazin-3-yl)methyl)phenoxy)isophthalonitrile level at 50 mg/kg, po
Design: unit not given here
Test conditions: in vivo

Molecular string	AUC
Cc1cc(Cc2ccc(Cl)c(Oc3cc(C#N)cc(C#N)c3)c2F)nn(COC(=O)c2cccnc2)c1=O.Cl	101
Cc1cc(Cc2ccc(Cl)c(Oc3cc(C#N)cc(C#N)c3)c2F)nn(COC(=O)[C@@H]2CCCN2)c1=O.Cl	108
Cc1cc(Cc2ccc(Cl)c(Oc3cc(C#N)cc(C#N)c3)c2F)nn(COC(=O)OCCN(C)C)c1=O.Cl	108
Cc1cc(Cc2ccc(Cl)c(Oc3cc(C#N)cc(C#N)c3)c2F)nn(COC(=O)CCC(=O)O)c1=O	142
Cc1cc(Cc2ccc(Cl)c(Oc3cc(C#N)cc(C#N)c3)c2F)nn(COC(=O)[C@@H](N)C(C)C)c1=O.Cl	134
Cc1cc(Cc2ccc(Cl)c(Oc3cc(C#N)cc(C#N)c3)c2F)nn(COC(=O)CN)c1=O.Cl	93
Cc1cc(Cc2ccc(Cl)c(Oc3cc(C#N)cc(C#N)c3)c2F)nn(COC(=O)OCCN2CCOCC2)c1=O.Cl	89
Cc1cc(Cc2ccc(Cl)c(Oc3cc(C#N)cc(C#N)c3)c2F)nn(COP(=O)([O-])[O-])c1=O.[Na+].[Na+]	178

---

Protocol text: Tmax in Hanover Wistar rat at 5 mg/kg, po
Assay type: ADME, organism-based
Design: dose 5 mg/kg, route oral
Test conditions: in vivo

Molecular string	Readout units	Tmax
Cc1cc(Cc2ccc(Cl)c(Oc3cc(C#N)cc(C#N)c3)c2F)n[nH]c1=O	h	3.7

---

Protocol text: Aqueous stability assessed as half life at pH 2
Format: physicochemical
Let's look at some compounds and their measured half-life.

Molecular string	half-life
Cc1cc(Cc2ccc(Cl)c(Oc3cc(C#N)cc(C#N)c3)c2F)nn(COP(=O)([O-])[O-])c1=O.[Na+].[Na+]	> 1 days
Cc1cc(Cc2ccc(Cl)c(Oc3cc(C#N)cc(C#N)c3)c2F)nn(COC(=O)CCC(=O)O)c1=O	19.2 days
Cc1cc(Cc2ccc(Cl)c(Oc3cc(C#N)cc(C#N)c3)c2F)nn(COC(=O)OCCN2CCOCC2)c1=O.Cl	12.5 days
Cc1cc(Cc2ccc(Cl)c(Oc3cc(C#N)cc(C#N)c3)c2F)nn(COC(=O)OCCN(C)C)c1=O.Cl	12 days
Cc1cc(Cc2ccc(Cl)c(Oc3cc(C#N)cc(C#N)c3)c2F)nn(COC(=O)[C@@H]2CCCN2)c1=O.Cl	0.708 days
Cc1cc(Cc2ccc(Cl)c(Oc3cc(C#N)cc(C#N)c3)c2F)nn(COC(=O)CN)c1=O.Cl	1.58 days
Cc1cc(Cc2ccc(Cl)c(Oc3cc(C#N)cc(C#N)c3)c2F)nn(COC(=O)[C@@H](N)C(C)C)c1=O.Cl	59 days
Cc1cc(Cc2ccc(Cl)c(Oc3cc(C#N)cc(C#N)c3)c2F)nn(COC(=O)c2cccnc2)c1=O.Cl	0.417 days

---

Protocol text: Dissociation constant, pKa of the compound
Assay type: physicochemical

Molecular string	pKa
Cc1cc(Cc2ccc(Cl)c(Oc3cc(C#N)cc(C#N)c3)c2F)n[nH]c1=O	10.5
